# MEASURED ON: Activated CDC42 kinase 1 (Homo sapiens, UniProt Q07912)
# Sequence (Q07912 whole entry): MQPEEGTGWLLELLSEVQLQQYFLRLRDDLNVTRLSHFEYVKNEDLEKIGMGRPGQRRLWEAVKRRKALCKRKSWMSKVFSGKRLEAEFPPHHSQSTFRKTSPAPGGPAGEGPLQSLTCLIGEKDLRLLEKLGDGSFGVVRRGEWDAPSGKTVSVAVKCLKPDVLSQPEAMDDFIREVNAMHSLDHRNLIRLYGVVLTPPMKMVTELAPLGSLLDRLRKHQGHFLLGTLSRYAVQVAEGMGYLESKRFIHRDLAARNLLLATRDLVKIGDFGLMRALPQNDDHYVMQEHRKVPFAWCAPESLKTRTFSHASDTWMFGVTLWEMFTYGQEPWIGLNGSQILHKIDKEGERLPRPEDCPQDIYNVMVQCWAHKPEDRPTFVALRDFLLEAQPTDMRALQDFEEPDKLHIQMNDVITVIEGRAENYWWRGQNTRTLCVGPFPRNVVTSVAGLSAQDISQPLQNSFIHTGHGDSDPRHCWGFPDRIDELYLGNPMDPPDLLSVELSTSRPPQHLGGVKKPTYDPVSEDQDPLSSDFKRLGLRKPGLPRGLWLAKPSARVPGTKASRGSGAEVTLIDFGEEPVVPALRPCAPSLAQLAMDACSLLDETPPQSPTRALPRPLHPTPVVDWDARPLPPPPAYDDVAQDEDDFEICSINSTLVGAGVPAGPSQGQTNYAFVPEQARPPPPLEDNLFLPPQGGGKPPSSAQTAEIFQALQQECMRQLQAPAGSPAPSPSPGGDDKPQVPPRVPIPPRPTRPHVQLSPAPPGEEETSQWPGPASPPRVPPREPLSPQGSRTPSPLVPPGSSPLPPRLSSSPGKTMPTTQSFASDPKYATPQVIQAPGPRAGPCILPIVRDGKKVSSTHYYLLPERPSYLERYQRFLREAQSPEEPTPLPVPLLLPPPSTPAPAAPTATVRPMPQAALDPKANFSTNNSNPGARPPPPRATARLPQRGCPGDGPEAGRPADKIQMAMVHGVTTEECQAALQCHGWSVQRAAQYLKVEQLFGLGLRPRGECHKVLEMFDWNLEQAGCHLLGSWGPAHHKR
# TEST METHOD NOTES: Inhibition of Ack1 (unknown origin) in the presence of [33P]ATP by kinase hotspot assay
RECORDED ENDPOINT: pIC50
pIC50 (log units): -log10 of the concentration in mol/L.

Q. Determine its reported pIC50: c1ccc(-c2oc3ncnc(NC[C@@H]4CCCO4)c3c2-c2ccccc2)cc1
A. 7.67

---

RECORDED ENDPOINT: IC50 (µM)
# output: bare number, implied unit µM

Q. Tell me IC50 of c1ccc(-c2oc3ncnc(NC[C@@H]4CCCO4)c3c2-c2ccccc2)cc1 when tested on UniProt:Q06187.
Sequence (Q06187 whole entry): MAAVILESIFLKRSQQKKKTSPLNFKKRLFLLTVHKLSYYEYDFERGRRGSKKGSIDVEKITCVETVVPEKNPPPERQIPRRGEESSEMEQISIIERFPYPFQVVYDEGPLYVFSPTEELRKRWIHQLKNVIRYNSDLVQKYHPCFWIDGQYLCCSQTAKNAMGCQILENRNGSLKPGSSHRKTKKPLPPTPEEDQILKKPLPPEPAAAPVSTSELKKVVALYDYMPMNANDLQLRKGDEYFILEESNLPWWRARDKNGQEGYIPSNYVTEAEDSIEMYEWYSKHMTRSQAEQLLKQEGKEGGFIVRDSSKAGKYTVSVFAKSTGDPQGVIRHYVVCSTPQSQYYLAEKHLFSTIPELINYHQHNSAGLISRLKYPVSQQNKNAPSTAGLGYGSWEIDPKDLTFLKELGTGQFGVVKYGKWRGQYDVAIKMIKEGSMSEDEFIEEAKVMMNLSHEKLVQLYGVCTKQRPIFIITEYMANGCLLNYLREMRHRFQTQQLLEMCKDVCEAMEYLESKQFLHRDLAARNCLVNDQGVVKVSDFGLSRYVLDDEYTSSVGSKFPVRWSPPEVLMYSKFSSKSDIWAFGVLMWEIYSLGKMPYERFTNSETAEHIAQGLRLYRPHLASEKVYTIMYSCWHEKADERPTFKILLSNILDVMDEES
A. 0.872

---

# MEASURED ON: Mitogen-activated protein kinase kinase kinase 8 (Homo sapiens, UniProt P41279)
# Sequence (P41279 whole entry): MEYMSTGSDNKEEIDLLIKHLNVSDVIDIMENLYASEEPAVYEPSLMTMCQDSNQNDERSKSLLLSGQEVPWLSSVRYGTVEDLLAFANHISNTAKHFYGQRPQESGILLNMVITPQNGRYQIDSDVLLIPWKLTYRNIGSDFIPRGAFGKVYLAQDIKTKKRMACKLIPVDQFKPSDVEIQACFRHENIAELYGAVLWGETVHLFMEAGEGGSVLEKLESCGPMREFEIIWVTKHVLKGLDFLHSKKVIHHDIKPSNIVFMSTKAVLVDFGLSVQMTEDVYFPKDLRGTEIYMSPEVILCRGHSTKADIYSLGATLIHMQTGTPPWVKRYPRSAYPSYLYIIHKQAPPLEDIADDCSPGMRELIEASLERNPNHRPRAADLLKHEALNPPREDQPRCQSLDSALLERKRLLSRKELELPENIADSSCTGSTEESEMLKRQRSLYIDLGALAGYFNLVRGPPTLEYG
# TEST METHOD NOTES: Inhibition of MAP3K8 (unknown origin) in the presence of [33P]ATP by kinase hotspot assay
# STATED CONDITIONS: read-out: IC50
RECORDED ENDPOINT: IC50

Q. # return recorded IC50 for entry CN[C@@H]1C[C@H]2O[C@@](C)([C@@H]1OC)n1c3ccccc3c3c4c(c5c6ccccc6n2c5c31)C(=O)NC4 [STAUROSPORINE]
A. > 20 µM
